Assay: Effective permeability across porcine polar brain lipid after 4 hrs by PAMPA
Conditions: pig, PAMPA
Measurement Name: Papp at 4 h (×10⁻⁶ cm/s)
The response must be a number in ×10⁻⁶ cm/s with no trailing unit.

Example entries begin here.
- Cpd Smiles: "Br.OCC/N=c1\\nc(-c2ccccc2)n(-c2ccccc2)s1"
  Unit Text: "×10⁻⁶ cm/s"
  Papp at 4 h: 15.8
- Cpd Smiles: "Br.COc1ccc(-n2s/c(=N/Cc3cccnc3)nc2-c2ccccc2)cc1"
  Unit Text: "×10⁻⁶ cm/s"
  Papp at 4 h: 6.3
- Cpd Smiles: "CNCCCN1c2ccccc2CCc2ccccc21"
  Unit Text: "×10⁻⁶ cm/s"
  Papp at 4 h: 14.9
- Cpd Smiles: "Cn1c(=O)c2c(ncn2C)n(C)c1=O"
  Unit Text: "×10⁻⁶ cm/s"
  Papp at 4 h: 1.6

Reported Papp at 4 h for `Br.COc1ccc(-n2s/c(=N/CCO)nc2-c2ccccc2)cc1` : what is it?
13.4

Item `Br.Cc1n/c(=N\Cc2cccnc2)sn1-c1ccccc1` has what recorded Papp at 4 h?
5.3

====

Target: Glycogen synthase kinase-3 beta (Homo sapiens)
Assay: Inhibition of human recombinant GSK3beta at 10 uM after 30 mins by luminescence assay in presence of ATP
Activity calls are given as the source filed them. The calls are words filed in the database; no cut-off is given here.
Measurement Name: inhibition

Field: example entries. Status: answers known.
- Cpd Smiles: "OCCNC(=S)N/C(=N/c1ccccc1)c1ccccc1"
  inhibition: "inactive"
- Cpd Smiles: "COc1ccc(/N=C(/NC(=S)NCc2cccnc2)c2ccccc2)cc1"
  inhibition: "inactive"
- Cpd Smiles: "c1ccc(Cn2s/c(=N/Cc3cccnc3)nc2-c2ccccc2)cc1"
  inhibition: "> 60%"
- Cpd Smiles: "FC(F)(F)c1ccc(/C(=N\\c2ccccc2)NC(=S)NCc2cccnc2)cc1"
  inhibition: "inactive"
- Cpd Smiles: "Br.CCOC(=O)C/N=c1\\nc(-c2ccccc2)n(-c2ccc(OC)cc2)s1"
  inhibition: "> 60%"
- Cpd Smiles: "CCCCC/C(=N\\c1ccccc1)NC(=S)NCc1cccnc1"
  inhibition: "inactive"

Field request: inhibition | item: `Br.COc1ccc(-n2s/c(=N/CCO)nc2-c2ccccc2)cc1`
> 60%

# lookup: inhibition of `Br.c1ccc(/N=c2/nc(-c3ccccc3)n(-c3ccccc3)s2)cc1`
> 60%

Fill in the blank: the reported inhibition of `Br.Cc1n/c(=N\Cc2cccnc2)sn1-c1ccccc1` is ____.
> 60%

Fill blank: measured inhibition of the molecule `Br.CCOC(=O)C/N=c1\nc(-c2ccc(OC)cc2)n(-c2ccccc2)s1` is ____.
> 60%

Name the reported inhibition value associated with the molecule `Br.N=c1nc(-c2ccccc2)n(-c2ccccc2)s1`
> 60%

Report inhibition for `NC(=S)N/C(=N/c1ccccc1)c1ccccc1` please.
inactive

# get_value(readout='inhibition', item= `Br.FC(F)(F)c1ccc(-c2n/c(=N\Cc3cccnc3)sn2-c2ccccc2)cc1` )
> 60%

====

Molecular target: Glycogen synthase kinase-3 beta (Homo sapiens, UniProt P49841)
Sequence (P49841 whole entry, looked up): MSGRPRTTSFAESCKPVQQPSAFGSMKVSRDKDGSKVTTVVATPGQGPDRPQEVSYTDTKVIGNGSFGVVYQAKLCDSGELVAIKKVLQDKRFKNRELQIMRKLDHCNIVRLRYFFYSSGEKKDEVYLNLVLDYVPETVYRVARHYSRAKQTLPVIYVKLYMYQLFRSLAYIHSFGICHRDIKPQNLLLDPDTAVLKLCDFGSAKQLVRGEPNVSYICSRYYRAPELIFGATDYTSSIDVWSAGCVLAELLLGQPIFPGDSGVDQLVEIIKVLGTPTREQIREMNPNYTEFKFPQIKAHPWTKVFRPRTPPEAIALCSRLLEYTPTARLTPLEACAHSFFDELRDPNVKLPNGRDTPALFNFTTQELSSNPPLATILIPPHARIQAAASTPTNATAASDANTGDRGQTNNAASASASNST
Test: Inhibition of human recombinant GSK3beta at 10 uM after 30 mins by luminescence assay in presence of ATP
The source made the active and inactive calls. The rule behind the calls is not given here.
Measurement Name: inhibition

Would you please look over these solved cases?
- Cpd Smiles: "Br.c1ccc(-c2n/c(=N\\Cc3cccnc3)sn2-c2ccccc2)cc1"
  Measured Target: "Glycogen synthase kinase-3 beta (Homo sapiens, UniProt P49841)"
  Measurement Name: "inhibition"
  Reading: "> 60%"
- Cpd Smiles: "S=C(N/C(=N/c1ccccc1)c1ccccc1)NC1CCCCC1"
  Measured Target: "Glycogen synthase kinase-3 beta (Homo sapiens, UniProt P49841)"
  Measurement Name: "inhibition"
  Reading: "inactive"
- Cpd Smiles: "O=[N+]([O-])c1ccc(/N=C(/NC(=S)NCc2cccnc2)c2ccccc2)cc1"
  Measured Target: "Glycogen synthase kinase-3 beta (Homo sapiens, UniProt P49841)"
  Measurement Name: "inhibition"
  Reading: "inactive"
- Cpd Smiles: "COc1ccc(/C(=N\\c2ccccc2)NC(=S)NCCO)cc1"
  Measured Target: "Glycogen synthase kinase-3 beta (Homo sapiens, UniProt P49841)"
  Measurement Name: "inhibition"
  Reading: "inactive"
- Cpd Smiles: "CCOC(=O)C/N=c1\\nc(-c2ccccc2)n(-c2ccc([N+](=O)[O-])cc2)s1"
  Measured Target: "Glycogen synthase kinase-3 beta (Homo sapiens, UniProt P49841)"
  Measurement Name: "inhibition"
  Reading: "> 60%"

Name the reported inhibition value associated with the compound `S=C(NCc1cccnc1)N/C(=N/c1cccc2ccccc12)c1ccccc1`
inactive

Quick one: inhibition for `OCCNC(=S)N/C(=N/c1cccc2ccccc12)c1ccccc1` ?
inactive

Return reported inhibition; argument: `OCC/N=c1\nc(-c2ccccc2)n(-c2ccccc2)s1`
> 60%

Can you share its inhibition? I mean this compound: `C/C(=N\c1ccccc1)NC(=S)NCc1cccnc1`
inactive

State the recorded inhibition for this entry: `Br.c1ccc(-c2n/c(=N\CCN3CCOCC3)sn2-c2ccccc2)cc1`
> 60%

Report inhibition for `CCOC(=O)CNC(=S)N/C(=N/c1ccc(OC)cc1)c1ccccc1` please.
inactive
